assay: Half life in rat at 1 mg/kg, iv; format: ADME, organism-based; details: in vivo
MEASUREMENT NAME: half-life (h)
Answers are plain numbers, in h.

Sure, the documented half-life for `COc1cc2nccc(Oc3ccc(NC(=O)c4cn(-c5ccccc5)c5ccccc5c4=O)cc3)c2cc1OC` is 8.9

* * *

assay: AUC (0 to t) in rat at 1 mg/kg, iv; assay type: ADME, organism-based; parameters: dose 1 mg/kg, route iv; details: in vivo
MEASUREMENT NAME: AUC(0-t) (ng·h/mL)
Answers are plain numbers, in ng·h/mL.

Sure, the documented AUC(0-t) for `COc1cc2nccc(Oc3ccc(NC(=O)c4cn(-c5ccccc5)c5ccccc5c4=O)cc3)c2cc1OC` is 6320

* * *

assay: Half life in rat at 10 mg/kg, po; assay type: ADME, organism-based; settings: in vivo
MEASUREMENT NAME: half-life (h)
One number for each entry, in h.

Sure, the documented half-life for `COc1cc2nccc(Oc3ccc(NC(=O)c4cn(-c5ccccc5)c5ccccc5c4=O)cc3)c2cc1OC` is 11.8

* * *

experiment: Cmax in rat at 10 mg/kg, po; format: ADME, organism-based; set-up: dose 10 mg/kg, route po; settings: in vivo
MEASUREMENT NAME: Cmax (ng/mL)
Answers are plain numbers, in ng/mL.

Sure, the documented Cmax for `COc1cc2nccc(Oc3ccc(NC(=O)c4cn(-c5ccccc5)c5ccccc5c4=O)cc3)c2cc1OC` is 1680

* * *

tested on: J774.A1; test: Antiinflammatory activity in LPS-induced mouse J774.A1 cells assessed as inhibition of LPS-induced IL-6 release at 10 uM preincubated for 30 mins followed by LPS stimulation for 24 hrs by ELISA method; assay type: functional; conditions: time 24.5 hrs
Record form. Attribute: inhibition at 10 µM. Fill in for each entry.
One number for each entry, in %.

// solved cases for inhibition at 10 µM follow
>>> print(df.to_string())
                  compound_structure_string  result
0  COc1cc2nccc(Oc3ccc(NC(=O)c4cn(-c5ccc(OC(F)(F)F)cc5)c5ccccc5c4=O)cc3)c2cc1OC    50.5
1  COc1cc2ncnc(Oc3cccc(NC(=O)c4cn(-c5ccc(F)cc5)c5ccccc5c4=O)c3)c2cc1OC    45.4
2  COc1cc2ncnc(Oc3ccc(NC(=O)c4cn(-c5ccc(F)cc5)c5ccccc5c4=O)cc3)c2cc1OC      57

Sure, the documented inhibition at 10 µM for `COc1cc2nccc(Oc3ccc(NC(=O)c4cn(-c5ccc(Br)cc5)c5ccccc5c4=O)cc3)c2cc1OC` is 41.7

* * *

system: J774.A1; assay: Antiinflammatory activity in LPS-induced mouse J774.A1 cells assessed as inhibition of LPS-induced IL-6 release preincubated for 30 mins followed by LPS stimulation for 24 hrs by ELISA method; type: functional, cell-based
MEASUREMENT NAME: pIC50
Give bare numbers, as −log10 of the molar value.

In [3]: df
Out[3]:
                  compound_structure_string  study_system  measurement_name  result
0  COc1cc2nccc(Oc3ccc(NC(=O)c4cn(-c5ccc(F)cc5)c5ccccc5c4=O)cc3)c2cc1OC       J774.A1             pIC50    5.63

--- query ---
pIC50 for J774.A1 with input `COc1cc2nccc(Oc3ccc(NC(=O)c4cn(-c5ccccc5)c5ccccc5c4=O)cc3)c2cc1OC` equals 5.88
